# targetEntity: N370S glucocerebrosidase from human spleen homogenate (Homo sapiens, UniProt P04062, N409S)
# Construct: N370S glucocerebrosidase from human spleen homogenate as the enzyme preparation; from tissue; host or cells: human spleen homogenate
# methodSummary: qHTS fluorogenic enzyme assay for activators of N370S glucocerebrosidase (4-methylumbelliferyl-beta-D-glucopyranoside substrate)
# Assay type: biochemical
# testParameters: pH 5.0, 37° C. 40 min
Reported log10(AC50) values for a set of molecules
// units: µM (pre-log); metric: AC50; scale: log10

So for Cc1cc(C)n2ncc(C(=O)NCC(C)C)c2n1 , the logged log10(AC50) turned out to be 1.51

So for O=C(NC1CCCc2ccccc21)c1cnn2c1NC(=C1CC1)C=C2C(F)F (stereo not drawn) , the logged log10(AC50) turned out to be 1.16

* * *

Listed next: entries and their corresponding log10 AC50.
# targetEntity: N370S glucocerebrosidase from human spleen homogenate (Homo sapiens, UniProt P04062, N409S)
# Construct: N370S glucocerebrosidase from human spleen homogenate as the enzyme preparation; from tissue; host or cells: human spleen homogenate
# methodSummary: qHTS fluorogenic enzyme assay for activators of N370S glucocerebrosidase (4-methylumbelliferyl-beta-D-glucopyranoside substrate)
# Format: biochemical
# testParameters: pH 5.0, 37° C. 40 min
Log10 applied to AC50; unit prior to transform: µM.

Consider the following illustrative entries.
Cc1cc(C)n2ncc(C(=O)Nc3ccc4ccccc4n3)c2n1; 1.31
Cc1cc(C)n2ncc(C(=O)Nc3ccccc3)c2n1; 0.91
C=C1C=C(C)n2ncc(C(=O)NCCCCCC)c2N1; 1.20
C=C1C=C(C(F)F)n2ncc(C(=O)N3CCN(c4ccccn4)CC3)c2N1; 1.55

Documented log10 AC50 of Cc1cc(C)n2ncc(C(=O)NCc3cccc(Cl)c3)c2n1 : 1.26

Value of log10 AC50 reported for the molecule Cc1cc(C)n2ncc(C(=O)Nc3ccc(C(F)(F)F)cc3)c2n1 is 0.16

# molecule CCc1ccc(NC(=O)c2cnn3c(C(F)F)cc(C)nc23)cc1 ; its log10 AC50 = 0.35

Given item Cc1cccc(NC(=O)c2cnn3c(C)cc(C)nc23)c1 , the value recorded as its log10 AC50 is 0.81

response.value for C=C1C=C(C(F)F)n2ncc(C(=O)NCCc3ccc(Cl)cc3)c2N1 (field: log10 AC50) = 1.20

* * *

# targetEntity: N370S glucocerebrosidase from human spleen homogenate (Homo sapiens, UniProt P04062, N409S)
# Construct: N370S glucocerebrosidase from human spleen homogenate as the enzyme preparation; from tissue; host or cells: human spleen homogenate
# Sequence (P04062 40-536 N409S): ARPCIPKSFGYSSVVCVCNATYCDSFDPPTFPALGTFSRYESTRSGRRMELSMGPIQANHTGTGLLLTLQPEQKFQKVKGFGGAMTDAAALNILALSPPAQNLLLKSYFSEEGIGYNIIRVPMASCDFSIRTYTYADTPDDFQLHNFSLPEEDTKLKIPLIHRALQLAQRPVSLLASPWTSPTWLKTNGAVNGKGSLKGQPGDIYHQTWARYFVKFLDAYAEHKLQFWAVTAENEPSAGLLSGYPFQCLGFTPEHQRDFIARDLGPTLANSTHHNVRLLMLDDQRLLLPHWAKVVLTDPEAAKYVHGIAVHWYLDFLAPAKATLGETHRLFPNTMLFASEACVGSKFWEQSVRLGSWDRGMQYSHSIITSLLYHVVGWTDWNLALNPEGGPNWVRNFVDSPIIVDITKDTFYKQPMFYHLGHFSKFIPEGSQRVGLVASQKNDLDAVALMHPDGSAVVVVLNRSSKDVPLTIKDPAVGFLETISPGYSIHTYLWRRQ
# methodSummary: qHTS fluorogenic enzyme assay for activators of N370S glucocerebrosidase (4-methylumbelliferyl-beta-D-glucopyranoside substrate)
# Type: biochemical
# testParameters: pH 5.0, 37° C. 40 min
Recorded log10 of AC50 by entry
Hey, these are logged values: log10 of AC50, µM being the unit before logging.

Solved entries:
O=C(NC1CCCCC1)c1cnn2c1NC(=C1CC1)C=C2C(F)F; 1.10
Cc1cc(C)n2ncc(C(=O)NC3CCCCC3)c2n1; 1.01
Cc1cc(C)n2ncc(C(=O)Nc3cc(Cl)cc(Cl)c3)c2n1; 1.41
Cc1cc(C)n2ncc(C(=O)Nc3ccc(Br)cc3)c2n1; 0.31
C=C1C=C(C(F)F)n2ncc(C(=O)NCc3ccccc3OC)c2N1; 1.15
Cc1cc(-c2ccccc2)nc2c(C(=O)NC3CCC(C(C)(C)C)CC3)cnn12 (stereo not drawn) [NCGC00229707-01]; 0.76
CCC(C)c1ccc(NC(=O)c2cnn3c(C(F)F)cc(C)nc23)cc1 (stereo not drawn); 0.70
Cc1cc(C)n2ncc(C(=O)NC3CCC(C(C)(C)C)CC3)c2n1 (stereo not drawn) [NCGC00188754-01]; 1.41

Please examine the following record next.
Memo: Cc1cc(C)n2ncc(C(=O)Nc3ccc(C)c(Cl)c3)c2n1 , reported log10 of AC50: 0.26
